Entry source: ChEMBL document CHEMBL1201862

Tested on: IGROV-1
Assay: NCI tumour cell line growth inhibition, 48 h
Active and inactive are the calls of the source. Rule as the data show it: active = GI50 up to about 1.1 µM and inactive = higher.
observation type: GI50

// below: answered molecules
molecule | GI50
CC12CC(Br)(Br)C(=O)C3C1CCCC32 | 10.1 µM (inactive)
COc1ccc(N2C(=O)CC(c3c[nH]c4ncccc34)C2=O)cc1 (configuration not stated) | 21.3 µM (inactive)
Cc1csc(/N=C(/NCCN2CCOCC2)Nc2nc(C)cs2)n1 | > 100 µM (inactive)
COC(=O)C(Cl)=C1CC1 | > 100 µM (inactive)
O=C(NCCCl)Nc1ccccc1 | > 100 µM (inactive)
Cc1ccc(/C=C2\CCCC(C(NO)c3ccc(C)cc3)C2=NO)cc1 (configuration not stated) | > 100 µM (inactive)
CC12C=CC(=O)C=C1CCC1C3CCC(O)(C(=O)CO)C3(C)CC(O)C12F (configuration not stated) | > 100 µM (inactive)
CC1(C)CC(=O)C(=CNC(=S)c2ccccc2)C(=O)C1 | > 100 µM (inactive)

stdin: Form field: reported GI50 of C/C=C\C(CC(=O)NCCC1CN(S(=O)(=O)c2ccc(C)cc2)c2ccccc21)CC(=O)OC (configuration not stated)
stdout: > 100 µM (inactive)

stdin: Also, CON(C)C(=O)C1CCCO1 (configuration not stated) please.
stdout: > 100 µM (inactive)

stdin: Also, O=C(O)C1=CNC(C(=O)O)=NN1 please.
stdout: > 100 µM (inactive)

stdin: Also, CN(C)CCOc1ccc2[nH]c(C(=O)N3CC(CCl)c4c3cc(NC(=O)OCc3ccc([N+](=O)[O-])cc3)c3ccccc43)cc2c1 (configuration not stated) please.
stdout: 1.45 µM (inactive)

stdin: Also, Cc1nc2[nH]ccn2c(=O)c1CCCl please.
stdout: 26.2 µM (inactive)

stdin: Also, O=C1C(Cl)=C(NCCOCCO)C(=O)c2c(O)ccc(O)c21 please.
stdout: 5.6 µM (inactive)

stdin: Also, CCOC(=O)C(NCc1ccc2c(c1)OCO2)(NC(=O)c1ccccc1)C(F)(F)F (configuration not stated) please.
stdout: > 100 µM (inactive)

* * *

Tested on: OVCAR-3
Experiment: NCI tumour cell line growth inhibition, 48 h
Activity calls are given as the source filed them. Rule as the data show it: active = GI50 up to about 1.1 µM and inactive = higher.
observation type: GI50

// below: answered molecules
molecule | GI50
O=C(c1nc2ccc(Cl)cc2nc1O)C(O)c1ccccc1 (stereo not drawn) | 32.8 µM (inactive)
COC(=O)C1=C(C(=O)OC)C(C(=O)OC)C(C(=O)OC)C(C(=O)OC)(C(=O)OC)C(C(=O)OC)=C1C(=O)OC (stereo not drawn) | 15.1 µM (inactive)
Cc1c(C(=N)N)oc2ccccc12 | > 100 µM (inactive)
CNC(=O)Oc1ccc(C(=S)Nc2ccc(Br)cc2)cc1 | 19.7 µM (inactive)
CCOC(=O)C(O)(C(=O)OCC)c1cc(C(C)(C)C)c(O)c(C(C)(C)C)c1 | 76.6 µM (inactive)
Cc1ccc(S(=O)(=O)C(CC(NC=O)S(=O)(=O)c2ccc(C)cc2)NC=O)cc1 (stereo not drawn) | > 100 µM (inactive)

stdin: Form field: reported GI50 of CCC(=O)CC(=O)CCC(=O)Nc1cc(C)ccc1C
stdout: > 100 µM (inactive)

stdin: Also, COC(=O)c1cc2cc(OC)c(OC)cc2cc(C(=O)OC)c1=O please.
stdout: > 100 µM (inactive)
